Measured inhibition at 10 µM, listed per entry.
Biological target: PDE4B (Homo sapiens, UniProt Q07343)
Construct: hexa-histidine (His6) (N); made in house
Sequence (Q07343 330-659 limits assumed, species assumed): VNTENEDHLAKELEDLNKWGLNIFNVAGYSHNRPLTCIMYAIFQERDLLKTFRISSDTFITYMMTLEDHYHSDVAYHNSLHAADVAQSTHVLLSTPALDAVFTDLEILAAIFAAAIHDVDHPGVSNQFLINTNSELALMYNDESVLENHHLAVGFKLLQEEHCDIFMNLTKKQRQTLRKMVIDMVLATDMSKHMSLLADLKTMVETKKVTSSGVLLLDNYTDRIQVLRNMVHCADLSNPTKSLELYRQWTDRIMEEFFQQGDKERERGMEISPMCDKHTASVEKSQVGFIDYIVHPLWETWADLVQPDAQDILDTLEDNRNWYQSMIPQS
Experiment: PDE4 IMAP Assay
Assay type: biochemical
Conditions: 2 h; Activity at 10 μM; catalytic domain of PDE4B; read-out: PDE IMAP Assay
Text: Compounds may be screened for functional potency in in vitro biochemical assays for their ability to inhibit the activity of phosphodiesterase (PDE) enzymes. […] Such binding causes a change in the rate of the molecular motion of the nucleotide, and results in an increase in the fluorescence polarization value observed for the fluorescent label attached to the substrate. […]

Some compounds with recorded inhibition at 10 µM:
COc1ccc(NC(=O)c2ccccc2C(F)(F)F)cc1OC1CCCC1 : ≥ 50%
O=C(c1cccc(N2CCNC2=O)c1)N(CCC1=CCCCC1)Cc1cc2cc3c(cc2nc1N1CCOCC1)OCO3 : ≥ 50%
O=c1n(Cc2ccncc2)nc2c3ccccc3nc(C3CC3)n12 : ≥ 50%
CC(C)c1nc2sc3c(NCCCO)ncnc3c2c2c1COC(C)(C)C2 : ≥ 50%
CSc1nc(NC2CCCCC2)c2sccc2n1 : ≥ 50%
COc1ccc(-c2cn3ccnc3c(NCc3ccccc3)n2)cc1OC : ≥ 50%
CCOc1ncccc1C(=O)Nc1ccc(S(=O)(=O)Nc2nccs2)cc1 : ≥ 50%
CCOc1ccccc1C(=O)Nc1c2c(nn1-c1cccc(Cl)c1)CS(=O)(=O)C2 : ≥ 50%

Let us examine a further case.
[ask] Query (compound): C/C(NCCO)=C1\C(=O)N(c2nc3ccccc3s2)N=C1c1ccccc1 ; field requested: inhibition at 10 µM
[reply] ≥ 50%

###

target: PDE4B (Homo sapiens, UniProt Q07343); construct: hexa-histidine (His6) (N); made in house; test: PDE4 IMAP Assay; assay type: biochemical; settings: 2 h; Activity at 10 μM; catalytic domain of PDE4B; read-out: PDE IMAP Assay
Listed here: items and their measured inhibition at 10 µM.

// worked examples, inhibition at 10 µM included
COc1ccc(-c2cnnn2-c2ccc(NC(=O)c3ccc4c(c3)OCO4)cc2)cc1OC : ≥ 50%
COc1ccc(CN(C(=O)c2cccc3ccccc23)C2CCCC2)cc1OC(C)C : ≥ 50%

With those in mind, consider the next compound.
[ask] Item NC(=O)CSc1nc2sc3c(c2c(=O)n1C1CCCC1)CCCC3 has what recorded inhibition at 10 µM?
[reply] ≥ 50%
